- Experiment Notes: Biodistribution studies
- Assay type: in vivo
- Test Settings: female, BALB/c nude, mouse, lung, iv, total radioactivity; 12 h postinjection, ~7.4 MBq i.v., n = 5, mean ± SD; read-out: Lung uptake
Where a SMILES comes first, the peptide text is derived from it. Bridges are numbered along the chain shown (N, C = ends).
Quantity Kind: tissue uptake at 12 h

Prompt: Fill in: tissue uptake at 12 h of N=C(N)NCCC[C@@H]1NC(=O)CNC(=O)[C@H](CC(N)=O)NC(=O)[C@@H](NC(=O)CNC(=O)CNC(=O)[C@@H](N)Cc2ccc(O)cc2)CSSC[C@@H](C(=O)O)NC1=O [^99mTc-NGR, metal not drawn] (H-YGGCNGRC-OH; disulfide 4-8) is ___
Completion: 1.21 %ID/g

###

- Experiment Notes: Biodistribution studies
- Format: in vivo
- Test Settings: female, BALB/c nude, mouse, kidney, total radioactivity; Blocking (1 h), coinjection of unlabelled NGR 20 mg/kg, n = 5, mean ± SD; read-out: Kidney uptake
- Procedure: HepG2 cells were grown in high glucose DMEM culture medium. […] Nude mice bearing human HepG2 hepatoma were randomly divided into 5 groups and injected with ~7.4 MBq of ^99mTc-NGR with or without excess unlabelled NGR peptide (20 mg/kg). […] The radioactivity in the HepG2 tumor, major organs, and muscle were collected and weighed wet with tubes (%ID/g). Mean uptake (%ID/g) for a group of animals was calculated with standard deviations. Values were expressed as mean ± SD (n = 5/group).
Where a SMILES comes first, the peptide text is derived from it. Bridges are numbered along the chain shown (N, C = ends).
Quantity Kind: tissue uptake at 1 h

Prompt: Please give the measured tissue uptake at 1 h for this molecule: N=C(N)NCCC[C@@H]1NC(=O)CNC(=O)[C@H](CC(N)=O)NC(=O)[C@@H](NC(=O)CNC(=O)CNC(=O)[C@@H](N)Cc2ccc(O)cc2)CSSC[C@@H](C(=O)O)NC1=O [^99mTc-NGR, metal not drawn] (H-YGGCNGRC-OH; disulfide 4-8)
Completion: 5.03 %ID/g

###

- Experiment Notes: Biodistribution studies
- Assay type: in vivo
- Test Settings: female, BALB/c nude, mouse, tumor/muscle, iv, 7.4 MBq, total radioactivity; 1 h postinjection; read-out: Tumor-to-normal tissue uptake ratio T/M
Where a SMILES comes first, the peptide text is derived from it. Bridges are numbered along the chain shown (N, C = ends).
Quantity Kind: tissue to tissue ratio at 1 h
I only need the number, thanks.

Prompt: May I ask what tissue to tissue ratio at 1 h has been recorded for N=C(N)NCCC[C@@H]1NC(=O)CNC(=O)[C@H](CC(N)=O)NC(=O)[C@@H](NC(=O)CNC(=O)CNC(=O)[C@@H](N)Cc2ccc(O)cc2)CSSC[C@@H](C(=O)O)NC1=O [^99mTc-NGR, metal not drawn] (H-YGGCNGRC-OH; disulfide 4-8) ?
Completion: 4.75

###

- Experiment Notes: Biodistribution studies
- Format: in vivo
- Test Settings: female, BALB/c nude, mouse, lung, iv, total radioactivity; 4 h postinjection, ~7.4 MBq i.v., n = 5, mean ± SD; read-out: Lung uptake
Where a SMILES comes first, the peptide text is derived from it. Bridges are numbered along the chain shown (N, C = ends).
Quantity Kind: tissue uptake at 4 h (%ID/g)
Quick note: give the figure in %ID/g, leave out the unit.

Prompt: # query: tissue uptake at 4 h of entry N=C(N)NCCC[C@@H]1NC(=O)CNC(=O)[C@H](CC(N)=O)NC(=O)[C@@H](NC(=O)CNC(=O)CNC(=O)[C@@H](N)Cc2ccc(O)cc2)CSSC[C@@H](C(=O)O)NC1=O [^99mTc-NGR, metal not drawn] (H-YGGCNGRC-OH; disulfide 4-8)
Completion: 2.13

Every entry's value here was drawn from paper PMC4052532.
